assayedSystem: Adenosine receptor A3 (Homo sapiens)
Sequence (P0DMS8 whole entry): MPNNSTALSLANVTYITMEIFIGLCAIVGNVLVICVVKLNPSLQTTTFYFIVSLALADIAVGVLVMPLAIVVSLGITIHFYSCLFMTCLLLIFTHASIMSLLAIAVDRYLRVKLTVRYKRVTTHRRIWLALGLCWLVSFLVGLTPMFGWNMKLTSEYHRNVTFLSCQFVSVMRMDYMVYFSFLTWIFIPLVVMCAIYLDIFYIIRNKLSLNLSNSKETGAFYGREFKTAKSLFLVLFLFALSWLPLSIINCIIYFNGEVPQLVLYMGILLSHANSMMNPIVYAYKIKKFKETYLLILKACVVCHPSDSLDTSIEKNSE
assay: Antagonist activity human adenosine A3 receptor expressed in CHO cells assessed as blockade of Cl-IB-MECA-mediated inhibition of forskolin-stimulated [3H]cAMP accumulation after 150 mins by scintillation counter
Format: functional, cell-based
recordedEndpoint: IC50 (nM)

Worked cases, answers included:
[
  {
    "molecule": "CCC1CN2C(=O)N(Cc3ccccc3)c3nc(-c4cc(OC)nn4C)[nH]c3C2=N1 (racemic)",
    "recordedEndpoint": "IC50",
    "observed": 20.4
  },
  {
    "molecule": "C=CCN1C(=O)N2CC(CC)N=C2c2[nH]c(-c3cc(C)nn3C)nc21 (racemic)",
    "recordedEndpoint": "IC50",
    "observed": 30.3
  },
  {
    "molecule": "COc1cc(-c2nc3c([nH]2)C2=N[C@@H](C)CN2C(=O)N3Cc2ccccc2)n(C)n1",
    "recordedEndpoint": "IC50",
    "observed": 17.5
  },
  {
    "molecule": "C=CCN1C(=O)N2CC(C)N=C2c2[nH]c(-c3cc(OC)nn3C)nc21 (racemic)",
    "recordedEndpoint": "IC50",
    "observed": 14.5
  },
  {
    "molecule": "C=CCN1C(=O)N2C[C@@H](CC)N=C2c2[nH]c(-c3cc(OC)nn3C)nc21",
    "recordedEndpoint": "IC50",
    "observed": 23.4
  }
]

1 = COc1cc(-c2nc3c([nH]2)C2=N[C@H](C)CN2C(=O)N3Cc2ccccc2)n(C)n1
2 = C=CCN1C(=O)N2C[C@H](C)N=C2c2[nH]c(-c3cc(C)nn3C)nc21
3 = CCC1CN2C(=O)N(Cc3ccccc3)c3nc(-c4cc(OC)no4)[nH]c3C2=N1 (racemic)
4 = C=CCN1C(=O)N2C[C@H](CC)N=C2c2[nH]c(-c3cc(OC)nn3C)nc21
Ask | Place the items in sequence of falling IC50. Your reply should list the labels following the order given in the request.
Reply | 2, 3, 1, 4

a = COc1cc(-c2nc3c([nH]2)C2=NC(C)CN2C(=O)N3Cc2ccccc2)n(C)n1 (stereo unspecified)
b = C=CCN1C(=O)N2CC(CC)N=C2c2[nH]c(-c3cc(OC)nn3C)nc21 (racemic)
Ask | Lower value of IC50 belongs to which: a or b ? # reply format: chosen label
Reply | b
(b: 12.2 nM, a: 27.6 nM)

P = C=CCN1C(=O)N2C[C@@H](C)N=C2c2[nH]c(-c3cc(C)nn3C)nc21
Q = C=CCN1C(=O)N2CC(C)N=C2c2[nH]c(-c3cc(OC)no3)nc21 (racemic)
R = C=CCN1C(=O)N2CC(CC)N=C2c2[nH]c(-c3cc(OC)no3)nc21 (racemic)
Ask | Please put the entries in order of rising IC50. When ranking, write the labels in the order the request describes.
Reply | R, Q, P
(R: 14.6 nM, Q: 24.2 nM, P: 35.9 nM)

I = COc1cc(-c2nc3c([nH]2)C2=NC(C)CN2C(=O)N3Cc2ccccc2)on1 (racemic)
II = C=CCN1C(=O)N2CC(C)N=C2c2[nH]c(-c3cc(C)nn3C)nc21 (racemic)
Ask | # return whichever of I and II has the smaller IC50 In your reply, give the label of the chosen option.
Reply | I
